# assay: Inhibition of EGFR L858R/T790M/C797S triple mutant in human NCI-H1975 cells assessed as cell growth inhibition measured after 72 hrs by CellTiter-Glo assay
measurement type: IC50 (µM)
Just the number please, in µM, no unit attached.

Query: IC50; subject: COc1cc2ncnc(NCc3ccc(NC(=O)C(c4ccccc4)N4Cc5ccccc5C4=O)cc3)c2cc1OCCCN1CCOCC1 (stereo unspecified) 12.4

Measured values drawn from BindingDB's records for doi:10.1016/j.bmc.2023.117534 for this set.
